B1: ADD1 (parent)
chain: FASDGDSGTCSPLRHSFQKQQREK

Variants of: B1
METHOD_DESCRIPTION: protein stability index of a GFP-peptide fusion (GPS, HEK-293T) (PSI 1-6); higher = more stable;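 note: lentivirally expressed fusions sorted by FACS into six bins by GFP to DsRed ratio, PSI derived from sequencing read proportions per bin multiplied by bin number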
TEST_PARAMETERS: c terminus: a fixed tail appended

| SEQUENCE_CODE | protein stability index |
| --- | --- |
| FESDGDSGTCSPLRHSFQKQQREK [A2E] | 5.18 |
| FASDGDSVTCSPLRHSFQKQQREK [G8V] | 3.81 |
| FASDGDSGTCRPLRHSFQKQQREK [S11R] | 4.39 |
| FASDGDSGTCSPSRHSFQKQQREK [L13S] | 4.55 |
| FASDGDSGTCSPLRHSFQKQQREW [K24W] | 3.08 |
| FASDGDSGTCSPLRHSFNKQQREK [Q18N] | 4 |
| FASDGDSGTCSPLRHSAQKQQREK [F17A] | 3.68 |
| FASDGDSGTCSPLRHSFQKQPREK [Q21P] | 3.67 |
| FASDGDSGTCSPLRHSFPKQQREK [Q18P] | 3.84 |
| FPSDGDSGTCSPLRHSFQKQQREK [A2P] | 4.27 |
| FASDGDSGTCSPLRHSFHKQQREK [Q18H] | 3.13 |
| FASDGDSGTCVPLRHSFQKQQREK [S11V] | 4.58 |
| FASDGDSGTCSDLRHSFQKQQREK [P12D] | 4.34 |
| FASDGDSGTCSPNRHSFQKQQREK [L13N] | 4.26 |
| FAKDGDSGTCSPLRHSFQKQQREK [S3K] | 3.75 |
| KASDGDSGTCSPLRHSFQKQQREK [F1K] | 4.22 |
| FASDGDSGTCSPLRTSFQKQQREK [H15T] | 4.16 |
| FASDMDSGTCSPLRHSFQKQQREK [G5M] | 3.62 |
| FASDGDSGTCSPLRHSFVKQQREK [Q18V] | 2.97 |
| FASDGDSGTCSPLRHSFQKQIREK [Q21I] | 3.42 |
| FASDGDSGTCSPLRLSFQKQQREK [H15L] | 3.21 |
| FALDGDSGTCSPLRHSFQKQQREK [S3L] | 3.51 |
| FASDGDSQTCSPLRHSFQKQQREK [G8Q] | 3.7 |
| FASDGDSGTCSPLRYSFQKQQREK [H15Y] | 3.44 |
| FASDGDSGTCSPLRHSFQKQWREK [Q21W] | 3.49 |
| FASDGDSGTCSPLRHSWQKQQREK [F17W] | 3.72 |
| FSSDGDSGTCSPLRHSFQKQQREK [A2S] | 4.47 |
| FASDGDSGTCSPLLHSFQKQQREK [R14L] | 3.66 |
| FASDGDSGTCSPLRHSFQKQRREK [Q21R] | 3.75 |
| FASDGDSGTCSPLRHSFQKQQRRK [E23R] | 3.79 |
| FASDGQSGTCSPLRHSFQKQQREK [D6Q] | 3.17 |
| CASDGDSGTCSPLRHSFQKQQREK [F1C] | 4.17 |
| FASDGDSGTCSPLRHSFQKQSREK [Q21S] | 3.64 |
| FASDGDSGTCSPLRHSFQKQQREQ [K24Q] | 3.82 |
| FASDQDSGTCSPLRHSFQKQQREK [G5Q] | 4.66 |
| FASDGDSGTCSPLRHSFQGQQREK [K19G] | 3.54 |
| FASDGDSGTCSSLRHSFQKQQREK [P12S] | 3.67 |
| FASDGDSGTCSPLRHVFQKQQREK [S16V] | 2.31 |
| FASDGDSGTCSPQRHSFQKQQREK [L13Q] | 4.95 |
| FASDGDSGTCSPLRMSFQKQQREK [H15M] | 2.88 |
| FASDGDSGTCSPLRHSCQKQQREK [F17C] | 4.17 |
| FASDGMSGTCSPLRHSFQKQQREK [D6M] | 2.27 |
| FASDGDSGTCSPLRHSFQKIQREK [Q20I] | 3.2 |
| FASDSDSGTCSPLRHSFQKQQREK [G5S] | 4.17 |
| FQSDGDSGTCSPLRHSFQKQQREK [A2Q] | 3.61 |
| FASDGDSGTCSPLRDSFQKQQREK [H15D] | 5.02 |
| FASDGDSGTCSPLRHSFQKQQYEK [R22Y] | 4.09 |
| FASDGDSGTCSPLRHSFQKQQRNK [E23N] | 3.6 |
| FASDNDSGTCSPLRHSFQKQQREK [G5N] | 4.29 |
| FASDPDSGTCSPLRHSFQKQQREK [G5P] | 3.67 |
| FASDGDSGTCDPLRHSFQKQQREK [S11D] | 4.04 |
| FASDGDSGTCSPHRHSFQKQQREK [L13H] | 5.09 |
| FASDGDSGTCSPLRHSFQKQQRWK [E23W] | 2.94 |
| FASDGDSGTCSPLRHSFQAQQREK [K19A] | 2.85 |
| FASDGHSGTCSPLRHSFQKQQREK [D6H] | 2.29 |
| FASDGDSGTCSELRHSFQKQQREK [P12E] | 3.93 |
| FASDGDSGTCSPLRHSFQKQQREN [K24N] | 3.57 |
| FASPGDSGTCSPLRHSFQKQQREK [D4P] | 4.26 |
| FASDGDSGTCSPLTHSFQKQQREK [R14T] | 4.8 |
| FASDGDSGTCSPERHSFQKQQREK [L13E] | 4.89 |
| FRSDGDSGTCSPLRHSFQKQQREK [A2R] | 4.38 |
| FASDGDSGTCSPLRHSFQKQQTEK [R22T] | 3.48 |
| FASDGDSGTCSPLRHSLQKQQREK [F17L] | 4.71 |
| FASDGDSGTCSPLRISFQKQQREK [H15I] | 3.5 |
| FASDGDSGTCSPLRHSFQKQQFEK [R22F] | 3.63 |
| FASDGDSGTCSPLRHSFQKQQWEK [R22W] | 3.28 |
| FASCGDSGTCSPLRHSFQKQQREK [D4C] | 2.72 |
| FYSDGDSGTCSPLRHSFQKQQREK [A2Y] | 4.33 |
| FASDGDSGTCSPLRHSFCKQQREK [Q18C] | 2.62 |
| FASDGDSGTCSPLRHSFQKGQREK [Q20G] | 3.98 |
| FASDGDSGTCSPLRHSFQKQQCEK [R22C] | 3.57 |
| FASDGDSGTCSPLRHSFQCQQREK [K19C] | 1.66 |
| FASDDDSGTCSPLRHSFQKQQREK [G5D] | 4.29 |
| FASDGDSGCCSPLRHSFQKQQREK [T9C] | 3.52 |
| FASDGDSGTCSPCRHSFQKQQREK [L13C] | 4.25 |
| FASDGDSGTCSPLKHSFQKQQREK [R14K] | 4.55 |
| FNSDGDSGTCSPLRHSFQKQQREK [A2N] | 4.79 |
| FASDGDSGTCSPLRHSFQNQQREK [K19N] | 3.08 |
| FASDGDEGTCSPLRHSFQKQQREK [S7E] | 4.26 |
| FASDGDSGTCSPLRHSFQKNQREK [Q20N] | 3.65 |
| FASDGDSGTCSPLRHSFQKQNREK [Q21N] | 4.04 |
| YASDGDSGTCSPLRHSFQKQQREK [F1Y] | 4.07 |
| FASDGDSGTCSPLRKSFQKQQREK [H15K] | 4.1 |
| FASDGDSGTCSPLRHSFQKQQDEK [R22D] | 4.51 |
| FASDGDSGTCSPLRHSFQKQQRQK [E23Q] | 4.04 |
| FASDGDHGTCSPLRHSFQKQQREK [S7H] | 3.42 |
| FASDGDSGTCPPLRHSFQKQQREK [S11P] | 4.62 |
| FASDGDSGTCSPLIHSFQKQQREK [R14I] | 4.52 |
| FASDGDSGTCSPLRHSFQKQQVEK [R22V] | 3.35 |
| FASDGDSGTCSPLRHSFQKQQRDK [E23D] | 3.11 |
| FAADGDSGTCSPLRHSFQKQQREK [S3A] | 3.58 |
